molecular target: T1, human MSLN-FL-his protein (human, UniProt Q13421 296-580); test: ELISA, coated MSLN full-length;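 further: binding of chimeric antibodies to plate-bound antigen, read by TMB colour after acid stop, antibody incubated 2 h at 37 °C, negative control antibody run alongside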
T1 construct: also called human MSLN full-length protein; hMSLN-FL-his; not shown: His tag
T1 sequence (Q13421 other isoform, or with tags, fused parts or gaps): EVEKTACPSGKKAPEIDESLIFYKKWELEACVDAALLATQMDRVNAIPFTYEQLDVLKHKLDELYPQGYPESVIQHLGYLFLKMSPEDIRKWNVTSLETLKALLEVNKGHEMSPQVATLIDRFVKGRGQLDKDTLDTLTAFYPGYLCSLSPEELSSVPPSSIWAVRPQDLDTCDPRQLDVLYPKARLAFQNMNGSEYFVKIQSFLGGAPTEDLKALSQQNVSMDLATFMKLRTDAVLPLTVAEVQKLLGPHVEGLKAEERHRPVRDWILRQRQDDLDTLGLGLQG
Quantity measured: OD450 at 0.01 nM
Write the numeric value and follow it with the unit.

Solved entries:
# Binder, Reported measurement
data = [
    ("S009-F2-56.12 (antibody, human IgG1, kappa, V domains shown, Human-murine chimeric antibody, human IgG1/kappa constant regions) VH: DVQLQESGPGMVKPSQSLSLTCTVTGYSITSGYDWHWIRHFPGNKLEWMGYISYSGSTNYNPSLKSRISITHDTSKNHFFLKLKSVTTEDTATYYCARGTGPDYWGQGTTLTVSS VL: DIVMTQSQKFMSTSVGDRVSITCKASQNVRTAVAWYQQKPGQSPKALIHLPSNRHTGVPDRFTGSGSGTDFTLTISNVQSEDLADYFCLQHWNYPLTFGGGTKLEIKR", "0.16 OD450"),
    ("S009-F2.39.3 (antibody, human IgG1, kappa, V domains shown, Human-murine chimeric antibody, human IgG1/kappa constant regions) VH: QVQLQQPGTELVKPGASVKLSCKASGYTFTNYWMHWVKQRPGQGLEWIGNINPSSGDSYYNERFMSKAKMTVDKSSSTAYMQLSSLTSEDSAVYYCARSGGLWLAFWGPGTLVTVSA VL: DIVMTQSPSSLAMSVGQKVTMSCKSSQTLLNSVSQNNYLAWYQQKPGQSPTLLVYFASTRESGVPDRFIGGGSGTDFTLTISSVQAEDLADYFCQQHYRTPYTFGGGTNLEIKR", "0.08 OD450"),
]

Let us examine a further case.
Reported OD450 at 0.01 nM for S009-F2.13.3 (antibody, human IgG1, kappa, V domains shown, Human-murine chimeric antibody, human IgG1/kappa constant regions) VH: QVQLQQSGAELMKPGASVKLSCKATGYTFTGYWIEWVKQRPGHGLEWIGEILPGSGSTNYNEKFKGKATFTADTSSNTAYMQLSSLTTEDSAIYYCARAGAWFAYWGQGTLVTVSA VL: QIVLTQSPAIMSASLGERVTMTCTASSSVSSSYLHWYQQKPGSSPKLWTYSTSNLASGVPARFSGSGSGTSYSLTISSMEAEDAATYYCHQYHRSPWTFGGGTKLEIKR : what is it?
0.26 OD450
